# Test system: S. aureus ATCC 29213
# Assay Text: MIC by NCCLS microdilution, antibacterial agents with and without EPI
# Format: cell-based
# Condition Info: reserpine 25 μg/ml
The threshold is 1 µg/mL. Values of MIC in the presence of 4X MEC of EPI, reserpine beneath it are tagged 1; values meeting or exceeding it are tagged -1.

Record excerpt, results attached:
Compound | Assigned Class
CO/N=C(\C(=O)N[C@@H]1C(=O)N2C(C(=O)O)=C(CSc3nc(=O)c(=O)[nH]n3C)CS[C@H]12)c1csc(N)n1 | -1
CCn1cc(C(=O)O)c(=O)c2cc(F)c(N3CCNCC3)cc21 [norfloxacin, reference compound] | 1
[Br-].c1ccc([P+](c2ccccc2)(c2ccccc2)c2ccccc2)cc1 [tetraphenylphosphonium bromide] | -1
CC(=O)NC[C@H]1CN(c2ccc(N3CCOCC3)c(F)c2)C(=O)O1 | -1
CC[C@H]1OC(=O)[C@H](C)[C@@H](O[C@H]2C[C@@](C)(OC)[C@@H](O)[C@H](C)O2)[C@H](C)[C@@H](O[C@@H]2O[C@H](C)C[C@H](N(C)C)[C@H]2O)[C@](C)(O)C[C@@H](C)C(=O)[C@H](C)[C@@H](O)[C@]1(C)O | 1

Query compound follows.
Just wondering, is MIC in the presence of 4X MEC of EPI, reserpine of COc1c(N2CCNC(C)C2)c(F)cc2c(=O)c(C(=O)O)cn(C3CC3)c12 (stereo not shown) [gatifloxacin, reference compound] below 1 µg/mL?
1

###

# Tested on: S. aureus ATCC 29213
# Assay Text: MIC by NCCLS microdilution, antibacterial agents with and without EPI
# Assay type: cell-based
# Condition Info: VX-853 6.25 μg/ml
Quantity: MIC in the presence of 4X MEC of EPI, VX-853 (µg/mL)
Kindly answer with a numeric value in µg/mL, unit omitted.

Sample answers from the record:
Compound | Test Result
C[C@H]1COc2c(N3CCN(C)CC3)c(F)cc3c(=O)c(C(=O)O)cn1c23 | 0.125
COc1c(N2CCNC(C)C2)c(F)cc2c(=O)c(C(=O)O)cn(C3CC3)c12 (centres unmarked) [gatifloxacin, reference compound] | 0.125
[Br-].c1ccc([P+](c2ccccc2)(c2ccccc2)c2ccccc2)cc1 [tetraphenylphosphonium bromide] | 8
CC[C@H]1OC(=O)[C@H](C)[C@@H](O[C@H]2C[C@@](C)(OC)[C@@H](O)[C@H](C)O2)[C@H](C)[C@@H](O[C@@H]2O[C@H](C)C[C@H](N(C)C)[C@H]2O)[C@](C)(O)C[C@@H](C)C(=O)[C@H](C)[C@@H](O)[C@]1(C)O | 0.25
CC(=O)NC[C@H]1CN(c2ccc(N3CCOCC3)c(F)c2)C(=O)O1 | 4
CCn1cc(C(=O)O)c(=O)c2cc(F)c(N3CCNCC3)cc21 [norfloxacin, reference compound] | 0.5
O=C(N[C@H](CO)[C@H](O)c1ccc([N+](=O)[O-])cc1)C(Cl)Cl | 8
CC[C@H]1OC(=O)[C@H](C)[C@@H](O[C@H]2C[C@@](C)(OC)[C@@H](O)[C@H](C)O2)[C@H](C)[C@@H](O[C@@H]2O[C@H](C)C[C@H](N(C)C)[C@H]2O)[C@](C)(O)C[C@@H](C)CN(C)[C@H](C)[C@@H](O)[C@]1(C)O | 1

Quick one: MIC in the presence of 4X MEC of EPI, VX-853 of CC[n+]1c(-c2ccccc2)c2cc(N)ccc2c2ccc(N)cc21 [EtBr, Ethidium bromide] ?
1.6

State the recorded MIC in the presence of 4X MEC of EPI, VX-853 for this entry: CO[C@@H]1[C@@H](OC(N)=O)[C@@H](O)[C@H](Oc2ccc3c(O)c(NC(=O)c4ccc(O)c(CC=C(C)C)c4)c(=O)oc3c2C)OC1(C)C
0.063

Consider the compound CO/N=C(\C(=O)N[C@@H]1C(=O)N2C(C(=O)O)=C(CSc3nc(=O)c(=O)[nH]n3C)CS[C@H]12)c1csc(N)n1 and give its measured MIC in the presence of 4X MEC of EPI, VX-853.
4

###

Reported MIC in the presence of 4X MEC of EPI, reserpine values are given for each entry in this list.
# Tested on: S. aureus ATCC 29213
# Assay Text: MIC by NCCLS microdilution, antibacterial agents with and without EPI
# Type: cell-based
# Condition Info: reserpine 25 μg/ml
# number then unit; no other words

Worked set:
Compound | Target Desc | Test Result
CC[n+]1c(-c2ccccc2)c2cc(N)ccc2c2ccc(N)cc21 [EtBr, Ethidium bromide] | S. aureus ATCC 29213 | 1.6 µg/mL
C[C@H]1COc2c(N3CCN(C)CC3)c(F)cc3c(=O)c(C(=O)O)cn1c23 [levofloxacin] | S. aureus ATCC 29213 | 0.125 µg/mL
CO[C@@H]1[C@@H](OC(N)=O)[C@@H](O)[C@H](Oc2ccc3c(O)c(NC(=O)c4ccc(O)c(CC=C(C)C)c4)c(=O)oc3c2C)OC1(C)C [novobiocin] | S. aureus ATCC 29213 | 0.063 µg/mL

# get_value(readout='MIC in the presence of 4X MEC of EPI, reserpine', item= O=C(N[C@H](CO)[C@H](O)c1ccc([N+](=O)[O-])cc1)C(Cl)Cl [chloramphenicol] )
8 µg/mL

###

# System: S. aureus ATCC 29213
# Assay Text: MIC by NCCLS microdilution, antibacterial agents with and without EPI
# Assay type: cell-based
# Condition Info: VX-710 100 μg/ml
Quantity: MIC in the presence of 4X MEC of EPI, VX-710
Quick note: unit goes after the number.

Solved entries:
Compound | Test Result
[Br-].c1ccc([P+](c2ccccc2)(c2ccccc2)c2ccccc2)cc1 [tetraphenylphosphonium bromide] | 4 µg/mL
COc1c(N2CCNC(C)C2)c(F)cc2c(=O)c(C(=O)O)cn(C3CC3)c12 (stereo not shown) [gatifloxacin, reference compound] | 0.125 µg/mL
O=C(N[C@H](CO)[C@H](O)c1ccc([N+](=O)[O-])cc1)C(Cl)Cl [chloramphenicol] | 8 µg/mL

--- query ---
Look up MIC in the presence of 4X MEC of EPI, VX-710 for this compound: C[C@H]1COc2c(N3CCN(C)CC3)c(F)cc3c(=O)c(C(=O)O)cn1c23 [levofloxacin]
0.125 µg/mL

###

This listing pairs compounds with measured MIC in the presence of 4X MEC of EPI, VX-710.
# System: S. aureus ATCC 29213
# Assay Text: MIC by NCCLS microdilution, antibacterial agents with and without EPI
# Type: cell-based
# Condition Info: VX-710 100 μg/ml
Respond numerically; units are µg/mL and should not be typed.

// solved cases for MIC in the presence of 4X MEC of EPI, VX-710 follow
Compound | Target Desc | Test Result
CC(=O)NC[C@H]1CN(c2ccc(N3CCOCC3)c(F)c2)C(=O)O1 | S. aureus ATCC 29213 | 4
CC[n+]1c(-c2ccccc2)c2cc(N)ccc2c2ccc(N)cc21 [EtBr, Ethidium bromide] | S. aureus ATCC 29213 | 0.2
CC[C@H]1OC(=O)[C@H](C)[C@@H](O[C@H]2C[C@@](C)(OC)[C@@H](O)[C@H](C)O2)[C@H](C)[C@@H](O[C@@H]2O[C@H](C)C[C@H](N(C)C)[C@H]2O)[C@](C)(O)C[C@@H](C)C(=O)[C@H](C)[C@@H](O)[C@]1(C)O | S. aureus ATCC 29213 | 0.25

Now for a further compound.
// returns reported MIC in the presence of 4X MEC of EPI, VX-710 for input CC[C@H]1OC(=O)[C@H](C)[C@@H](O[C@H]2C[C@@](C)(OC)[C@@H](O)[C@H](C)O2)[C@H](C)[C@@H](O[C@@H]2O[C@H](C)C[C@H](N(C)C)[C@H]2O)[C@](C)(O)C[C@@H](C)CN(C)[C@H](C)[C@@H](O)[C@]1(C)O
1

###

Below, each entry is listed with its recorded MIC.
# System: S. aureus SA-1199 (clinical isolate, susceptible)
# Assay Text: MIC of fluoroquinolones with and without EPI
# Type: cell-based
# Condition Info: Staphylococcus aureus, read-out: MIC of antibacterial agent, EPI none
Numbers only; they are read as mg/L.

A selection of reference data follows.
Compound | MIC / mg/L
C[C@H]1COc2c(N3CCN(C)CC3)c(F)cc3c(=O)c(C(=O)O)cn1c23 [levofloxacin] | 0.125
COc1c(N2CCNC(C)C2)c(F)cc2c(=O)c(C(=O)O)cn(C3CC3)c12 (stereo not shown) [gatifloxacin, reference compound] | 0.063
CCn1cc(C(=O)O)c(=O)c2cc(F)c(N3CCNCC3)cc21 [norfloxacin, reference compound] | 0.5

// next entry
# lookup: MIC of CC[n+]1c(-c2ccccc2)c2cc(N)ccc2c2ccc(N)cc21 [EtBr, Ethidium bromide]
6.2
